// each record: one item and its IC50 for hDGKzeta(1-928)-N-His (DGKZ) (Homo sapiens)
Numeric only. Scale: µM

Solved cases (2 shown):
{"columns": ["MOLECULE", "SYSTEM", "MEASUREMENT"],
 "data": [
  ["COc1ccc(-c2ccc(CN3C(=O)[C@H](N)CC(F)(F)c4cc(F)c(-c5nnc(C(C)(C)S(C)(=O)=O)o5)cc43)cc2)nc1 (single isomer, unassigned) [Example 39]", "hDGKzeta(1-928)-N-His (DGKZ) (Homo sapiens)", 38.8],
  ["COC(=O)N1CC2CC(c3nnc(-c4cc5c(cc4F)C(F)(F)C[C@@H](N)C(=O)N5Cc4ccc(Cl)cc4)o3)(C2)C1 (single isomer, unassigned) [Example 36]", "hDGKzeta(1-928)-N-His (DGKZ) (Homo sapiens)", 5.92]
]}

[ask] So what's the measured IC50 for this one? CC(C)(C#N)c1nnc(-c2cc3c(cc2F)C(F)(F)C[C@@H](N)C(=O)N3Cc2ccc(-n3nnc(C(F)(F)F)n3)cc2)o1 (single isomer, unassigned) [Example 20]
[reply] 2.14

[ask] Same lookup for CCN1CC(c2nnc(-c3cc4c(cc3F)C(F)(F)C[C@@H](N)C(=O)N4Cc3ccc(OC(F)(F)F)cc3)o2)CC(F)(F)C1 (single isomer, unassigned) [Example 13] , please.
[reply] 2.26

====

Test system: primary human T-cells
Assay: IL2 secretion measurements in CD3-stimulated T-cells
Type: cell-based
Details: Homo sapiens, T-cell; isomer A; CD3 antibody-stimulated T-cells, IL2 in supernatant after 24 hours; read-out: Tcell IL2 CD3 EC50
PROPERTY NAME: EC50 (nM)
Numeric only. Scale: nM

Solved cases (3 shown):
{"columns": ["COMPOUND", "SYSTEM", "EC50 / nM"],
 "data": [
  ["COc1ccc(-c2ccc(CN3C(=O)[C@H](N)CC(F)(F)c4cc(F)c(-c5nnc(C(C)(C)C#N)o5)cc43)cc2)nc1 (single isomer, unassigned)", "primary human T-cells", 2080],
  ["CC(C)(C#N)c1nnc(-c2cc3c(cc2F)C(F)(F)C[C@@H](N)C(=O)N3Cc2ccc(-c3ccc(OC(F)(F)F)cn3)cc2)o1 (single isomer, unassigned)", "primary human T-cells", 76.8],
  ["COc1ccc(-c2ccc(CN3C(=O)[C@H](N)CC(F)(F)c4cc(F)c(-c5nnc(C(C)(C)S(C)(=O)=O)o5)cc43)cc2)cc1 (single isomer, unassigned)", "primary human T-cells", 378]
]}

Please turn your attention to the following entry.
[ask] So what's the measured EC50 for this one? COC(=O)N1CC2CC(c3nnc(-c4cc5c(cc4F)C(F)(F)C[C@@H](N)C(=O)N5Cc4ccc(Cl)cc4)o3)(C2)C1 (single isomer, unassigned)
[reply] 856

====

System: primary human T-cells
Test: T-cell proliferation assay (CellTiter-Glo)
Type: cell-based
Details: Homo sapiens, T-cell, 120 h; isomer A; CD3 antibody-stimulated T-cells, CellTiter-Glo after 5 days; read-out: Tcell Proliferation CD3 EC50
PROPERTY NAME: EC50 (nM)
Numeric only. Scale: nM

{"columns": ["COMPOUND", "EC50 (nM)"],
 "data": [
  ["CC(C)(C#N)c1nnc(-c2cc3c(cc2F)C(F)(F)C[C@@H](N)C(=O)N3Cc2ccc(-c3ccc(OC(F)F)cn3)cc2)o1 (single isomer, unassigned) [Example 41]", 196],
  ["COC(=O)N1CC2CC(c3nnc(-c4cc5c(cc4F)C(F)(F)C[C@@H](N)C(=O)N5Cc4ccc(Cl)cc4)o3)(C2)C1 (single isomer, unassigned) [Example 36]", 168],
  ["CC(C)(C#N)c1nnc(-c2cc3c(cc2F)C(F)(F)C[C@@H](N)C(=O)N3Cc2ccc(-c3ccc(C(F)F)cn3)cc2)o1 (single isomer, unassigned) [Example 40]", 655]
]}

Please turn your attention to the following entry.
[ask] So what's the measured EC50 for this one? N[C@@H]1CC(F)(F)c2cc(F)c(-c3nnc(N4CCC(F)(F)CC4)o3)cc2N(Cc2ccc(-c3noc(C(F)(F)F)n3)cc2)C1=O (single isomer, unassigned) [Example 15]
[reply] 127

Hello, the source for this data is patent US20250236614A1, in case you need it.
